molecular target: Casein kinase I isoform gamma-1 (Homo sapiens, UniProt Q9HCP0); test: Inhibition of CK1gamma1 (unknown origin)
Sequence (Q9HCP0 whole entry, canonical isoform): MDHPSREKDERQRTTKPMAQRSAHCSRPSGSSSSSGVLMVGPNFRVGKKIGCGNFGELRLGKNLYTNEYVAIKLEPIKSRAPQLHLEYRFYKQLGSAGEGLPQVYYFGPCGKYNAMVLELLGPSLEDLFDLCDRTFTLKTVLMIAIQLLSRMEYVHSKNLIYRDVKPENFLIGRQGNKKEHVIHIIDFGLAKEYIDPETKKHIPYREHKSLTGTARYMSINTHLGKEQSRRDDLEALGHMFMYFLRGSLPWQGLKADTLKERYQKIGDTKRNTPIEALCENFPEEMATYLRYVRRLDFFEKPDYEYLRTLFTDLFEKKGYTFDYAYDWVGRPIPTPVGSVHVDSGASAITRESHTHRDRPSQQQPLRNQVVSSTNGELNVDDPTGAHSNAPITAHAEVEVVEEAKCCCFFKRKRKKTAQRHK
pIC50: −log10 of the molar value.
reportedEndpoint: pIC50

Incoming: Quick check: pIC50 on Casein kinase I isoform gamma-1 (Homo sapiens, UniProt Q9HCP0), item CC(C)n1cnnc1-c1cccc(NC(=O)[C@H]2CN(c3ccc(C4CC4)nc3)CCO2)n1 ?
Outgoing: ≥ 6.30

----------
pIC50: −log10 of the molar value.
reportedEndpoint: pIC50

Incoming: Quick check: pIC50 on Proto-oncogene tyrosine-protein kinase receptor Ret (Homo sapiens), item CC(C)n1cnnc1-c1cccc(NC(=O)C2CCCCO2)n1 (stereo unspecified) ?
Outgoing: < 4.70

----------
The listing below reports IC50 for molecules tested on Epidermal growth factor receptor (Homo sapiens, UniProt P00533).
Sequence (P00533 whole entry): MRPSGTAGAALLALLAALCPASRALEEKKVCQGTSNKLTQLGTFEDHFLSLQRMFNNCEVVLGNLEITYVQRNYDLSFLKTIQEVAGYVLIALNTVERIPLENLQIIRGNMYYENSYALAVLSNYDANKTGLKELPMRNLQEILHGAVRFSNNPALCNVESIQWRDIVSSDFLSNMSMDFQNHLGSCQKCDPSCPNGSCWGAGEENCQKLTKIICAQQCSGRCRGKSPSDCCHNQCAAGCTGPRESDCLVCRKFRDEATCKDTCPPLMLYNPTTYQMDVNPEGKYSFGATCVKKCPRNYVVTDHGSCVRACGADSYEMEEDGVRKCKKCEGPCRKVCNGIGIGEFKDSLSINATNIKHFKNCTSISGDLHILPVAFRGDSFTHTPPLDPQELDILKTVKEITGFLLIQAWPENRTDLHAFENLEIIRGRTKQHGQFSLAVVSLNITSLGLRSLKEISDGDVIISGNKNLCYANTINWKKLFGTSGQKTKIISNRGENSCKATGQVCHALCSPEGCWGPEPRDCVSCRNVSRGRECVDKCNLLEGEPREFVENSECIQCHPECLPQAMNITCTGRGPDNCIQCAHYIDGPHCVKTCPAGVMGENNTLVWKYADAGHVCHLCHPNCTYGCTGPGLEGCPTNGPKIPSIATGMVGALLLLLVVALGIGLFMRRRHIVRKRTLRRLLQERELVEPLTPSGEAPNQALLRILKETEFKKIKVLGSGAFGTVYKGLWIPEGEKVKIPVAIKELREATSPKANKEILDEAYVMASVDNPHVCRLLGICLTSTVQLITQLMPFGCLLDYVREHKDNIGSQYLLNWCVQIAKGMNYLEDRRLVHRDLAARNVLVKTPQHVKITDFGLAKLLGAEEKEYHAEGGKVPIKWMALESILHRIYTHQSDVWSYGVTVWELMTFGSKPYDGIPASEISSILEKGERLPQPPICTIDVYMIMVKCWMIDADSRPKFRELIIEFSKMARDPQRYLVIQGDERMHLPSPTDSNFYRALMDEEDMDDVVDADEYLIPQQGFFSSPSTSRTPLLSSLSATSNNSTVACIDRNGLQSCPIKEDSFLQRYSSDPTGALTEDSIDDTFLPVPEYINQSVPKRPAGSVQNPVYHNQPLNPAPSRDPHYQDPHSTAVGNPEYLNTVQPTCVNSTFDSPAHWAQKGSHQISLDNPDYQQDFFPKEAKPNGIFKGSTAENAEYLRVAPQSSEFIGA

Incoming: Any idea what its IC50 is? The molecule is CC(C)n1cnnc1-c1cccc(N2Cc3ccccc3C2=O)n1
Outgoing: > 20 µM

Incoming: Any idea what its IC50 is? The molecule is CC(C)n1cnnc1-c1cccc(NC(=O)C2CCCCO2)n1 (configuration not stated)
Outgoing: > 20 µM
